System: Fibroblast
Test: Multiplex assay against human fibroblast
Format: toxicity, cell-based
Settings: 24 h, 1 µM, compound concentration 1 uM, replicate 2
# maps each entry to its Population Pyknosed Nuclei (%)
Write the number in % without appending the unit.

>>> print(df.to_string())
                                   compound  system_tested              measured_parameter  reading_unit  numeric_value
0  O=C(NCC(=O)N1CC[C@H](N[C@H]2CC[C@@](O)(c3ccc(-c4ncccn4)cn3)CC2)C1)c1cccc(C(F)(F)F)c1     Fibroblast  Population Pyknosed Nuclei (%)             %             14
1  COc1ccc2c(c1)C(C(=O)N(Cc1ccc(N(C)C)cc1)c1ccc(C(C)C)cc1)CCC2.Cl (stereo not drawn)     Fibroblast  Population Pyknosed Nuclei (%)             %             20
2  CCCN1CCC[C@@H]2Cc3n[nH]cc3C[C@H]21.Cl [QUINPIROLE HYDROCHLORIDE]     Fibroblast  Population Pyknosed Nuclei (%)             %             17
3                           CCCC(CCC)C(=O)O     Fibroblast  Population Pyknosed Nuclei (%)             %             24
4  CN1CCN2c3ncccc3Cc3ccccc3C2C1 (stereo not drawn)     Fibroblast  Population Pyknosed Nuclei (%)             %             23
5  O=C(NCCO)c1cccc(-c2cc(Nc3ccc(OC(F)(F)F)cc3)ncn2)c1     Fibroblast  Population Pyknosed Nuclei (%)             %             25

(Q) Give its Population Pyknosed Nuclei (%) value. Item: `CCNC1(C(N)=O)CCN(c2ncnc3c2nc(-c2ccccc2Cl)n3-c2ccc(Cl)cc2)CC1`
(A) 29

(Q) Give its Population Pyknosed Nuclei (%) value. Item: `CN1CCN(c2nc3cc(C(F)(F)F)ccc3n3cccc23)CC1.O=C(O)/C=C\C(=O)O.O=C(O)/C=C\C(=O)O`
(A) 22
